- System: MCF-7 cells
- Assay Remarks: MTT antiproliferative assay on MCF-7
- Assay type: cell-based, human
- Experimental Parameters: Homo sapiens, MCF7, 10 μM; read-out: Growth inhibition (% ± SEM), MCF-7
inhibition at 10 µM vs 20%: at or above is true, below is false.

[[record]]
compound = "C=CC1=C(C)C(=O)C=C2c3ccc(O)c(C)c3CC[C@]21OCC"
test_target = "MCF-7 cells"
class = "false"

[[record]]
compound = "C=Cc1c(C)c(O)c(OC)c2c3c(ccc12)C(C)(OC)C(=O)C=C3 (stereo not drawn)"
test_target = "MCF-7 cells"
class = "true"

[[record]]
compound = "C=CC1=C(C)C(=O)C=C2C3=C(CCC21OC)C(C)(OC)C(=O)C=C3 (stereo not drawn)"
test_target = "MCF-7 cells"
class = "true"

[[record]]
compound = "C=CC1=C(C)C(=O)C=C2c3ccc(O)c(C)c3CC[C@]21OC"
test_target = "MCF-7 cells"
class = "true"

[[record]]
compound = "C=CC1=C(C)C(=O)C(OCCCC)(OCCCC)c2c1ccc1c2C=CC(=O)C1(C)OCCCC (stereo not drawn)"
test_target = "MCF-7 cells"
class = "false"

[[record]]
compound = "C=Cc1c(C)c(O)cc2c3c(ccc12)C(C)(OCC)C(=O)C=C3 (stereo not drawn)"
test_target = "MCF-7 cells"
class = "false"

[[record]]
compound = "C=CC1=C(C)C(=O)C=C2C3(OCC)C=CC(=O)C(C)=C3CCC21OCC (stereo not drawn)"
test_target = "MCF-7 cells"
class = "false"

[[record]]
compound = "C=CC1=C(C)C(=O)C=C2C3=C(CC[C@@]21OC)[C@@](C)(OC)C(=O)C=C3"
test_target = "MCF-7 cells"
class = "false"

[[record]]
compound = "C=CC1=C(C)C(=O)C=C2c3ccc(O)c(C)c3CC[C@@]21OC"
test_target = "MCF-7 cells"
class = "true"

[[record]]
compound = "C=CC1=C(C)C(=O)C=C2C3=C(CC[C@]21OC)[C@@](C)(OC)C(=O)C=C3"
test_target = "MCF-7 cells"
class = "false"

[[record]]
compound = "C=Cc1c(C)c(O)cc2c1CCc1c-2ccc(O)c1C"
test_target = "MCF-7 cells"
class = "true"

[[record]]
compound = "C=CC1=C(C)C(=O)C=C2C3=C(CC[C@@]21OC)[C@](C)(OC)C(=O)C=C3"
test_target = "MCF-7 cells"
class = "false"

[[record]]
compound = "C=CC1=C(C)C(=O)C=C2C3=C(CC[C@]21OC)[C@](C)(OC)C(=O)C=C3"
test_target = "MCF-7 cells"
class = "false"

[[record]]
compound = "C=CC1=C2CCc3c(ccc(O)c3C)C2=CC(=O)C1(C)OCC (stereo not drawn)"
test_target = "MCF-7 cells"
class = "false"

[[record]]
compound = "C=CC1=C(C)C(=O)C=C2C3(OC)C=CC(=O)C(C)=C3CCC21OC (stereo not drawn)"
test_target = "MCF-7 cells"
class = "true"

[[record]]
compound = "C=CC1=C(C)C(=O)C=C2c3ccc(O)c(C)c3CC[C@@]21OCC"
test_target = "MCF-7 cells"
class = "true"

[[record]]
compound = "C=CC1=C(C)C(=O)C=C2c3ccc(O)c(C)c3CCC21OCCCC (stereo not drawn)"
test_target = "MCF-7 cells"
class = "true"


====

Listed here: items and their measured inhibition at 10 µM.
- Test system: A2780 cells
- Assay Remarks: MTT antiproliferative assay on A2780
- Assay type: cell-based, human
- Experimental Parameters: Homo sapiens, A2780, 10 μM; read-out: Growth inhibition (% ± SEM), A2780
Property Label: inhibition at 10 µM

[[record]]
compound = "C=CC1=C(C)C(=O)C=C2C3=C(CC[C@]21OC)[C@@](C)(OC)C(=O)C=C3"
test_target = "A2780 cells"
result = "52.2%"

[[record]]
compound = "C=CC1=C(C)C(=O)C=C2C3(OCC)C=CC(=O)C(C)=C3CCC21OCC (centres unmarked)"
test_target = "A2780 cells"
result = "< 10%"

[[record]]
compound = "C=CC1=C(C)C(=O)C=C2C3=C(CCC21OC)C(C)(OC)C(=O)C=C3 (centres unmarked)"
test_target = "A2780 cells"
result = "67.1%"

[[record]]
compound = "C=Cc1c(C)c(O)cc2c3c(ccc12)C(C)(OCC)C(=O)C=C3 (centres unmarked)"
test_target = "A2780 cells"
result = "< 10%"

[[record]]
compound = "C=CC1=C(C)C(=O)C=C2C3=C(CC[C@]21OC)[C@](C)(OC)C(=O)C=C3"
test_target = "A2780 cells"
result = "45.1%"

[[record]]
compound = "C=CC1=C2CCc3c(ccc(O)c3C)C2=CC(=O)C1(C)OCC (centres unmarked)"
test_target = "A2780 cells"
result = "< 10%"

[[record]]
compound = "C=CC1=C(C)C(=O)C=C2c3ccc(O)c(C)c3CC[C@]21OCC"
test_target = "A2780 cells"
result = "< 10%"

[[record]]
compound = "C=CC1=C(C)C(=O)C=C2c3ccc(O)c(C)c3CC[C@]21OC"
test_target = "A2780 cells"
result = "< 10%"


====

- Tested on: A2780 cells
- Assay Remarks: MTT antiproliferative assay on A2780
- Assay type: cell-based, human
- Experimental Parameters: Homo sapiens, A2780; MTT, 0.1–30 μM, 72 h, mean ± SEM; read-out: calculated IC50 values, A2780
pIC50: −log10 of the molar value.
Property Label: pIC50

[[record]]
compound = "C=CC1=C(C)C(=O)C=C2C3=C(CC[C@]21OC)[C@](C)(OC)C(=O)C=C3"
property_label = "pIC50"
operator = "="
numeric_readout = 4.96

[[record]]
compound = "C=CC1=C(C)C(=O)C=C2c3ccc(O)c(C)c3CC[C@]21OCC"
property_label = "pIC50"
operator = "<"
numeric_readout = 4.52

[[record]]
compound = "C=CC1=C(C)C(=O)C=C2C3=C(CC[C@]21OC)[C@@](C)(OC)C(=O)C=C3"
property_label = "pIC50"
operator = "="
numeric_readout = 5.05

[[record]]
compound = "C=CC1=C(C)C(=O)C=C2C3=C(CCC21OCC)C(C)(OCC)C(=O)C=C3 (single isomer, unassigned)"
property_label = "pIC50"
operator = "="
numeric_readout = 4.95

[[record]]
compound = "C=CC1=C(C)C(=O)C=C2c3ccc(O)c(C)c3CCC21OCCCC (stereo not shown)"
property_label = "pIC50"
operator = "="
numeric_readout = 4.78

[[record]]
compound = "C=CC1=C(C)C(=O)C=C2c3ccc(O)c(C)c3CC[C@]21OC"
property_label = "pIC50"
operator = "<"
numeric_readout = 4.52

[[record]]
compound = "C=CC1=C(C)C(=O)C=C2C3=C(CC[C@@]21OC)[C@@](C)(OC)C(=O)C=C3"
property_label = "pIC50"
operator = "="
numeric_readout = 4.88

